Catalogue of Kd readings, one per entry.
target: dAHR PAS-B (Drosophila melanogaster, UniProt O61543, M284C/Y336L); construct: PAS-B domain (residues 264–381); test: label-free MST
Sequence (O61543 entry or part of it M284C/Y336L): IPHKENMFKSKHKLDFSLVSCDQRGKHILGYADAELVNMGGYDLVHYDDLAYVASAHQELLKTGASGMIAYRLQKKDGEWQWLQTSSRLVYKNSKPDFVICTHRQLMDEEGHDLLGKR

O=Cc1c2[nH]c3ccccc3c2cc2[nH]c3ccccc3c12 ... ~800 nM

Here is the next item to consider.
Exercise: Entry under review: O=c1cc(-c2ccccc2)oc2ccc3ccccc3c12 . Reported Kd?
Solution: ~400 nM
